assaySystem: T1, 4H3709-AA
T1 chain: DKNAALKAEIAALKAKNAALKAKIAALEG
assayText: two-hybrid library CCmax;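 note: natural log of median RNA to DNA barcode read ratio; higher means stronger binding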
experimentalConditions: mean of both orientations
Could you please report measured interaction score for the items listed next?
Answers are plain numbers.

These solved cases illustrate the format of a correct answer.
binder | interaction score
DKNAALKAEIAALEAKIAALKAENAALKG [4H3628-AA] | -1.58
DKIAALKAKNAALEAEIAALEAENAALKG [4H2948-AA] | -1.17
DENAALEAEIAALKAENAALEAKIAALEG [4H1109-AA] | 2.13

Below are 4 binders. Give each one its interaction score.
1. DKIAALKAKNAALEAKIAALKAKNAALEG [4H2991-AA]
2. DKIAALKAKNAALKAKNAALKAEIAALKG [4H3066-AA]
3. DKIAALKAENAALEAKNAALEAKIAALKG [4H2742-AA]
4. DKNAALEAKIAALKAENAALKAEIAALEG [4H3417-AA]

1. -1.43
2. -1.94
3. -1.19
4. -0.223

Where do these numbers come from? They come from paper PMC10397247.
